# assayed target: TAOK3 (human)
# experiment: KINOMEscan competition binding
# measurement parameters: compound 10.0 µM
Please use yes for kinase still bound, per cent of control under 10% and no for everything else, ties included.

>  <molecule smiles>
CN1CCN(c2ccc(C(=O)Nc3ncc4c(n3)N(C)c3ccccc3C(=O)N4C)cc2)CC1

>  <assayed target>
TAOK3 (human)

>  <label class>
no

$$$$
>  <molecule smiles>
NS(=O)(=O)c1ccc(-c2ccc(/C=C3\SC(=S)N(CC(=O)O)C3=O)o2)cc1

>  <assayed target>
TAOK3 (human)

>  <label class>
no

$$$$
>  <molecule smiles>
N=C1NC(=O)/C(=C/c2ccc(-c3ccc(C(=O)Nc4ccc(N5CCNCC5)cc4)cc3O)o2)S1

>  <assayed target>
TAOK3 (human)

>  <label class>
yes

$$$$
>  <molecule smiles>
N=C1NC(=O)/C(=C/c2ccc(-c3ccccc3O)o2)S1

>  <assayed target>
TAOK3 (human)

>  <label class>
yes

$$$$
>  <molecule smiles>
COc1cc(N2CCC(O)CC2)ccc1Nc1ncc2c(n1)N(C)c1ccccc1C(=O)N2C

>  <assayed target>
TAOK3 (human)

>  <label class>
yes

$$$$
>  <molecule smiles>
COc1cc(N2CCN(C)CC2)ccc1Nc1ncc2c(n1)N(C)c1sccc1C(=O)N2C

>  <assayed target>
TAOK3 (human)

>  <label class>
no

$$$$
>  <molecule smiles>
Cc1cn(-c2cc(NC(=O)c3cccc4cc(-c5ccc(/C=C6\SC(=N)NC6=O)o5)ccc34)cc(C(F)(F)F)c2)cn1

>  <assayed target>
TAOK3 (human)

>  <label class>
yes

$$$$
>  <molecule smiles>
COc1cc(N2CCN(C)CC2)ccc1Nc1ncc2c(n1)N(C)c1ccccc1N(C)C2=O

>  <assayed target>
TAOK3 (human)

>  <label class>
no

$$$$
>  <molecule smiles>
CN1C(=O)c2ccccc2N(C)c2nc(Nc3ccc(N4CCC(O)CC4)cn3)ncc21

>  <assayed target>
TAOK3 (human)

>  <label class>
yes

$$$$
>  <molecule smiles>
CS(=O)(=O)Nc1ccc(-c2ccc(/C=C3\SC(=N)NC3=O)o2)cc1

>  <assayed target>
TAOK3 (human)

>  <label class>
no

$$$$
>  <molecule smiles>
CSC1=NC(=O)/C(=C/c2ccc(-c3ccc(S(N)(=O)=O)cc3)o2)S1

>  <assayed target>
TAOK3 (human)

>  <label class>
no

$$$$
>  <molecule smiles>
COc1cc(N2CCN(C)CC2)ccc1Nc1ncc2c(n1)Nc1ccccc1NC2=O

>  <assayed target>
TAOK3 (human)

>  <label class>
yes

$$$$
>  <molecule smiles>
CN1C(=O)c2ccccc2N(C)c2nc(NS(=O)(=O)c3ccc(N)cc3)ncc21

>  <assayed target>
TAOK3 (human)

>  <label class>
no

$$$$
>  <molecule smiles>
N=C1NC(=O)/C(=C/c2ccc(-c3cncc4ccccc34)o2)S1

>  <assayed target>
TAOK3 (human)

>  <label class>
no

$$$$
>  <molecule smiles>
Nc1cccc(-c2cc(/C=C3\SC(=O)NC3=O)c[nH]c2=O)c1

>  <assayed target>
TAOK3 (human)

>  <label class>
no

$$$$
>  <molecule smiles>
N=C1NC(=O)/C(=C/c2ccc(-c3ccc(F)cc3O)o2)S1

>  <assayed target>
TAOK3 (human)

>  <label class>
yes

$$$$
>  <molecule smiles>
N=C1NC(=O)/C(=C/c2ccc(-c3ccc(C(N)=O)cc3O)o2)S1

>  <assayed target>
TAOK3 (human)

>  <label class>
no

$$$$
>  <molecule smiles>
N=C1NC(=O)/C(=C/c2ccc(-c3ccc(F)cc3)o2)S1

>  <assayed target>
TAOK3 (human)

>  <label class>
yes

$$$$
